Test system: VEGF, P15692-4
Sequence: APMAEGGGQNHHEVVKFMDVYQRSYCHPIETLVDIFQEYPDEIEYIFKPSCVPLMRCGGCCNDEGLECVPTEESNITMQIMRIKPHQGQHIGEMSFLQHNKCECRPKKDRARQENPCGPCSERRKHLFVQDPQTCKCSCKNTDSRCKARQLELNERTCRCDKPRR
Assay: SPR
Conditions: 2'-OMe at all positions as printed; 5'-PEG 20 kDa (mPEG-SPA via 5' amine); BIAcore 2000, VEGF immobilized, aptamer 30-500 nM, PBS pH 7.4
Result type: Kd (nM)

{"Residue sequence": "AUGCAGUUUGAGAAGUCGCGCAU [PEGylated anti-VEGF 2'-OMe-RNA aptamer]", "Unit label": "nM", "Endpoint value": 87}
